The values you see were collected from BindingDB's records for doi:10.1016/j.chembiol.2016.06.006.

target: Lysine-specific demethylase 5B [1-755] (Homo sapiens); construct: 1-755; experiment: Formaldehyde Dehydrogenase-Coupled Demethylase (FDH) Assay; conditions: 25 °C
Sequence (Q9UGL1 1-755): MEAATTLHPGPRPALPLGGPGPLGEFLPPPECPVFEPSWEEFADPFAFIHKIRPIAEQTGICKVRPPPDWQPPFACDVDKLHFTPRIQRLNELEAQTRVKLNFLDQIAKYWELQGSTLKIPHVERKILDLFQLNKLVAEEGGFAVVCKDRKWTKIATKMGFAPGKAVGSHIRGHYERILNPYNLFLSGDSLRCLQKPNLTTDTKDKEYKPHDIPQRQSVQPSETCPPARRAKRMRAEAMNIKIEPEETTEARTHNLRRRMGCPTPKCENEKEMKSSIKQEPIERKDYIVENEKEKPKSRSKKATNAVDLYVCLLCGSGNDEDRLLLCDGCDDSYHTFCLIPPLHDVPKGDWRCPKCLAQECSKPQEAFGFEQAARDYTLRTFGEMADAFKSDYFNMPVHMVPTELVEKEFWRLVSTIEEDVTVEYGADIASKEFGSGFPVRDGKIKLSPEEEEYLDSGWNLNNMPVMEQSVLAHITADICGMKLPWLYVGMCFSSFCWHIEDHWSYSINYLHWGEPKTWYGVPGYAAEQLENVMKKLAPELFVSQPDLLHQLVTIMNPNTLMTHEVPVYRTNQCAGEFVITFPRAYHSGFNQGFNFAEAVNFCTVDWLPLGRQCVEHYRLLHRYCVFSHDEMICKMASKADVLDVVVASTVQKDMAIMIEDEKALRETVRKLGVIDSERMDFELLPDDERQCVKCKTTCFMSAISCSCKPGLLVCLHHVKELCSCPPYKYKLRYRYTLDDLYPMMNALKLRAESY
Catalogue of IC50 readings, one per entry.
recorded-metric: IC50 (nM)

[[record]]
test_smiles = "Cc1[nH]c2c(C#N)cnn2c(=O)c1C(C)C"
sign = "="
value_reported = 400

[[record]]
test_smiles = "O=C(O)c1ccncc1Nc1nn(CCN2CCC(F)(F)CC2)c2ccc(F)cc12"
sign = "="
value_reported = 370

[[record]]
test_smiles = "Cn1cnc(-c2nccc3c(O)nc(OCCCC(F)(F)F)nc23)c1"
sign = ">"
value_reported = 32000

